We begin with a simple list: items and their reported IC50.
- system-tested: pseudo-kinase domain (JH2, amino-acids 536-812 with 3 surface mutations W659A, W777A, F794H) of human Wild Type JAK2 (Homo sapiens, UniProt O60674, F794H/W659A/W777A)
- Construct: pseudo-kinase domain (JH2, amino-acids 536-812 with 3 surface mutations W659A, W777A, F794H); His (C); Avi (biotinylated) (C)
- Sequence (O60674 536-812 W659A/W777A/F794H): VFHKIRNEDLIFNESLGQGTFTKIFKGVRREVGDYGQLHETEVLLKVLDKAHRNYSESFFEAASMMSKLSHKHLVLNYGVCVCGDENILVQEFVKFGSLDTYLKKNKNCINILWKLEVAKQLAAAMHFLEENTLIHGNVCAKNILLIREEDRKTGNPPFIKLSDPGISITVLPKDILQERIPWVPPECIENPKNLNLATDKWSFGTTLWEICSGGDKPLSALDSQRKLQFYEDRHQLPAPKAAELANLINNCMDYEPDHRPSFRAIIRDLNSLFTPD
- assay-details: JAK2 LanthaScreen JH2-WT Binding Assay
- test-context: JAK2 JH2-WT (0.145 nM), 50 nM Fluorescent JAK2-JH2 Tracer, 1 hour at 25° C.; read-out: JH2 BIND WT

Cn1ncc2cc(-c3c(-c4cnn(CC(C)(C)O)c4)[nH]c4ncc5c(c34)n([C@H]3CC[C@@H](CC#N)CC3)c(=O)n5C)ccc21	≤ 10 nM

In the following, a different compound is considered.
Value of IC50 reported for the compound Cn1c(=O)n(C2CCOCC2)c2c3c(-c4ccc(C5(N6CCOCC6)CC5)cc4)c(-c4cnn(CC(C)(C)O)c4)[nH]c3ncc21 is ≤ 10 nM

* * *

List of pIC50 values.
- system-tested: pseudo-kinase domain (JH2, amino-acids 536-812 with 3 surface mutations W659A, W777A, F794H) of human V617F mutant JAK2 (Homo sapiens, UniProt O60674, F794H/V617F/W659A/W777A)
- Construct: pseudo-kinase domain (JH2, amino-acids 536-812 with 3 surface mutations W659A, W777A, F794H); His (C); Avi (biotinylated) (C)
- Sequence (O60674 536-812 V617F/W659A/W777A/F794H): as the sequence (O60674 536-812 W659A/W777A/F794H) above, with V82F counted along it
- assay-details: JAK2 LanthaScreen JH2-V617F Binding Assay
- test-context: JAK2 JH2-V617F (0.26 nM), 50 nM Fluorescent JAK2-JH2 Tracer, 1 hour at 25° C.; read-out: JH2 BIND V617F
pIC50: −log10 of the molar value.

CC(=O)NC1CCC(n2c(=O)n(C)c3cnc4[nH]c(-c5cnn(CC(C)(C)O)c5)c(-c5ccc6c(cnn6C)c5)c4c32)CC1 (centres unmarked) [Example 74]	≥ 8.00
CC(C)Oc1ccc(-c2[nH]c3ncc4c(c3c2-c2ccc3c(cnn3C)c2)n(C2CCCC2)c(=O)n4C)cn1 [Example 65]	7.00 to 8.00
Cn1ncc2cc(-c3c(-c4cnn(Cc5ccncc5)c4)[nH]c4ncc5c(c34)n(C3CCCC3)c(=O)n5C)ccc21 [Example 53]	≥ 8.00
COc1ccc(-n2c(=O)n(C)c3cnc4[nH]c(-c5ccc(CN6CCC(S(C)(=O)=O)CC6)cc5)cc4c32)cc1 [Example 2]	6.30 to 7.00
CCn1c(=O)n(C2CCCC2)c2c3cc(-c4ccc(CN5CCC(S(C)(=O)=O)CC5)cc4)[nH]c3ncc21 [Example 13]	< 6.00

The compound identified as CC(C)n1c(=O)n(C)c2cnc3[nH]c(-c4cnn(CC(C)(C)O)c4)c(-c4ccc5c(c4)CCCO5)c3c21 [Example 79] registered its pIC50 at 7.00 to 8.00

Item: Cn1c(=O)n(C)c2c3c(-c4ccccc4)c(-c4cccnc4)[nH]c3ncc21 [Example 40] | pIC50: < 6.00

get_value(item= Cn1ncc2cc(-c3c(CCO)[nH]c4ncc5c(c34)n(C3CCCC3)c(=O)n5C)ccc21 [Example 70] , readout=pIC50) returns 6.30 to 7.00

Note to self: pIC50 recorded for Cn1c(=O)n(C2CCCC2)c2c3c(C4=CCOCC4)c(-c4ccc(CN5CCC(S(C)(=O)=O)CC5)cc4)[nH]c3ncc21 [Example 33] was ≥ 8.00

* * *

Measured pIC50 values are reported for all entries that follow.
- system-tested: pseudo-kinase domain (JH2, amino-acids 536-812 with 3 surface mutations W659A, W777A, F794H) of human Wild Type JAK2 (Homo sapiens, UniProt O60674, F794H/W659A/W777A)
- Construct: pseudo-kinase domain (JH2, amino-acids 536-812 with 3 surface mutations W659A, W777A, F794H); His (C); Avi (biotinylated) (C); purchased BPS Bioscience 79463; host or cells: baculovirus expression system
- assay-details: JAK2 LanthaScreen JH2-WT Binding Assay
- test-context: JAK2 JH2-WT (0.145 nM), 50 nM Fluorescent JAK2-JH2 Tracer, 1 hour at 25° C.; read-out: JH2 BIND WT
pIC50: −log10 of the molar value.

# example entries with known answers
CC(C)n1c(=O)n(C)c2cnc3[nH]c(-c4cnn(CC(C)(C)O)c4)c(-c4ccc5c(c4)CCC5O)c3c21 (stereo not drawn) [Example 86]	≥ 8.00
Cn1c(=O)n(-c2ccccc2)c2c3cc(-c4ccc(CN5CCC(S(C)(=O)=O)CC5)cc4)[nH]c3ncc21 [Example 1]	7.00 to 8.00
Cn1cc(-c2[nH]c3ncc4c(c3c2-c2ccc3c(cnn3C)c2)n(C2CCN(C3(CC#N)CCC3)CC2)c(=O)n4C)cn1 [Example 111]	≥ 8.00
CC(C)n1c(=O)n(C)c2cnc3[nH]c(-c4cnn(CC(C)(C)O)c4)c(-c4ccc(COC5CCOCC5)cc4)c3c21 [Example 87]	≥ 8.00
COC1CC=C(c2c(-c3ccc(CN4CCC(S(C)(=O)=O)CC4)cc3)[nH]c3ncc4c(c23)n(C2CCCC2)c(=O)n4C)CC1 (stereo not drawn) [Example 32]	≥ 8.00
COc1ccc(-c2c(-c3ccc(CN4CCC(S(C)(=O)=O)CC4)cc3)[nH]c3ncc4c([nH]c(=O)n4C)c23)cc1 [Example 23]	7.00 to 8.00

// CCN1CCN(c2ccc(-c3cc4c(ncc5c4n(CC(=O)N4CCCCC4)c(=O)n5C)[nH]3)cc2)CC1 [Example 17] : pIC50 value = < 6.00

Looking up CC(C)n1c(=O)n(C)c2cnc3[nH]c(-c4ccc(CN5CCC(S(C)(=O)=O)CC5)cc4)c(-c4ccc(C5(C#N)CC5)cc4)c3c21 [Example 26] , I see its pIC50 listed as ≥ 8.00

According to the records, this compound Cn1c(=O)n(C2CCCCC2)c2c3cc(-c4cnn(CS(C)(=O)=O)c4)[nH]c3ncc21 [Example 12] displays pIC50 of 7.00 to 8.00

* * *

- system-tested: catalytic domain (JH1, amino acids 826-1132) of human JAK2 (Homo sapiens, UniProt O60674)
- Construct: catalytic domain (JH1, amino acids 826-1132) of human JAK2; FLAG (N)
- Sequence (O60674 826-1132): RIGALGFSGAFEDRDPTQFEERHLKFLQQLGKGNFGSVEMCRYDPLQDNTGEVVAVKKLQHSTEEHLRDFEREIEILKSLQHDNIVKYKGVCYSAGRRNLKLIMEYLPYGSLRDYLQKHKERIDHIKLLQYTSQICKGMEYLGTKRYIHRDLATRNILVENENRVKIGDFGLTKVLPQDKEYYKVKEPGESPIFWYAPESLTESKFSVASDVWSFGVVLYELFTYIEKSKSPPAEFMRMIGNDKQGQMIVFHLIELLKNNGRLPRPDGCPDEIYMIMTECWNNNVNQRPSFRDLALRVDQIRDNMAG
- assay-details: JAK2 LanthaScreen JH1 Binding Assay
- test-context: JAK2 JH1 (1.5 nM), 50 nM fluorescent JAK2-JH1 tracer, 2 hours at 25° C.; read-out: JH1 BIND
pIC50: −log10 of the molar value.
pIC50 values, listed per item

Cn1c(=O)n(C(C)(C)C)c2c3cc(-c4ccc(CN5CCC(S(C)(=O)=O)CC5)cc4)[nH]c3ncc21 [Example 11]	7.00 to 8.00

Next molecule, please.
In plain terms, Cn1ncc2cc(-c3c(-c4ccncc4)[nH]c4ncc5c(c34)n(C3CCCC3)c(=O)n5C)ccc21 [Example 60] has a documented pIC50 of < 6.00

* * *

- system-tested: catalytic domain (JH1, amino acids 826-1132) of human JAK2 (Homo sapiens, UniProt O60674)
- Construct: catalytic domain (JH1, amino acids 826-1132) of human JAK2; FLAG (N)
- assay-details: JAK2 LanthaScreen JH1 Binding Assay
- test-context: JAK2 JH1 (1.5 nM), 50 nM fluorescent JAK2-JH1 tracer, 2 hours at 25° C.; read-out: JH1 BIND
pIC50: −log10 of the molar value.
value-kind: pIC50

COc1ccc(-c2c(-c3cnn(Cc4ccncc4)c3)[nH]c3ncc4c(c23)n(C2CCCC2)c(=O)n4C)cc1	6.30 to 7.00

Sure, the documented pIC50 for COC1CC=C(c2c(-c3ccc(CN4CCC(S(C)(=O)=O)CC4)cc3)[nH]c3ncc4c(c23)n(C(C)(C)C)c(=O)n4C)CC1 (stereo not shown) is 6.00 to 6.30

Note to self: pIC50 recorded for Cn1c(=O)n(C2CCOCC2)c2c3c(-c4ccc(C5(N6CCOCC6)CC5)cc4)c(-c4cnn(CC(C)(C)O)c4)[nH]c3ncc21 was < 6.00

The reported value for Cn1c(=O)n(C2CCCOC2)c2c3cc(-c4ccc(CN5CCC(S(C)(=O)=O)CC5)cc4)[nH]c3ncc21 (stereo not shown) in terms of pIC50 is 7.00 to 8.00

Looking up COCC(=O)NC1CCC(n2c(=O)n(C)c3cnc4[nH]c(-c5cnn(CC(C)(C)O)c5)c(-c5ccc6c(cnn6C)c5)c4c32)CC1 (stereo not shown) , I found its pIC50 recorded as < 6.00

The molecule listed as COc1nn(C)cc1-c1[nH]c2ncc3c(c2c1-c1ccc2c(cnn2C)c1)n([C@H]1CC[C@@H](CC#N)CC1)c(=O)n3C shows pIC50 equal to < 6.00

Per the records, this molecule ( CC(C)n1c(=O)n(C)c2cnc3[nH]c(-c4cnn(CC(C)(C)O)c4)c(-c4cc5c(s4)CCNC5)c3c21 ) has pIC50 equal to < 6.00

The reported value for Cn1ncc2cc(-c3c(-c4cnn(CC(C)(C)O)c4)[nH]c4ncc5c(c34)n([C@H]3CC[C@@H](CC#N)CC3)c(=O)n5C)ccc21 in terms of pIC50 is 6.30 to 7.00

pIC50 measured on Cn1ncc2cc(-c3c(S(C)(=O)=O)[nH]c4ncc5c(c34)n(C3CCCC3)c(=O)n5C)ccc21 = < 6.00
